Please respond with reported Control for every item in the list.
- measured-on: Sodium-dependent dopamine transporter (Rattus norvegicus) (UniProt P23977)
- Sequence (P23977 whole entry): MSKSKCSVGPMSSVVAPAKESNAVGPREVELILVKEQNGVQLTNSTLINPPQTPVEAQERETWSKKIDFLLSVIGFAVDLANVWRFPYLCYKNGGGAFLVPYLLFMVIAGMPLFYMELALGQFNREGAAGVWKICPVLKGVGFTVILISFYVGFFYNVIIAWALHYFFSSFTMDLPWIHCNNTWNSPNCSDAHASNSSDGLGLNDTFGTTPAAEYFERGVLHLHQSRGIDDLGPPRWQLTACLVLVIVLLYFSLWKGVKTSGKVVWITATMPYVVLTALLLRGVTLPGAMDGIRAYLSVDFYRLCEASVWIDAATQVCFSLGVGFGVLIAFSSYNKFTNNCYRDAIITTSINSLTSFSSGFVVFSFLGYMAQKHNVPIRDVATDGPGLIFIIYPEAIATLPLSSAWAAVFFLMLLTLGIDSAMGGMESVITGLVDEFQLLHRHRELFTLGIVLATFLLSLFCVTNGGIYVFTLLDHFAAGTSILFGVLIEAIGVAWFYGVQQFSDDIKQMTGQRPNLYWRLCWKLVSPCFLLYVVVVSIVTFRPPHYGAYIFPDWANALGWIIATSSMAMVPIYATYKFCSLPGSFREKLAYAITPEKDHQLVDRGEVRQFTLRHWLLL
- test-method-notes: In vitro ability to inhibit the [3H]WIN-35428 binding to cocaine binding site on dopamine transporter in rat striatal membranes irreversibly after two washes.
- Format: cell membranes
- Set-up: concentration or dose not given beside the values
- condition-notes: Striatum; Membrane
Provide only the numeric value, understood in %.

Find Control (Sodium-dependent dopamine transporter (Rattus norvegicus) (UniProt P23977)) for the entry COC(=O)[C@H]1[C@@H](OC(=O)c2ccccc2)C[C@@H]2CC[C@H]1N2C
79

Find Control (Sodium-dependent dopamine transporter (Rattus norvegicus) (UniProt P23977)) for the entry CN1C2CC[C@@H]1C[C@H](OC(=O)c1ccccc1)[C@@H]2C(=O)OCCc1ccc(N=[N+]=[N-])cc1
45

Find Control (Sodium-dependent dopamine transporter (Rattus norvegicus) (UniProt P23977)) for the entry CN1C2CC[C@@H]1C[C@H](c1ccc(Cl)cc1)[C@@H]2C(=O)OCCc1ccc(N=C=S)cc1
26

Find Control (Sodium-dependent dopamine transporter (Rattus norvegicus) (UniProt P23977)) for the entry COC(=O)[C@@H]1C2CC[C@H](C[C@@H]1c1ccc(N=[N+]=[N-])c(I)c1)N2C
5

Find Control (Sodium-dependent dopamine transporter (Rattus norvegicus) (UniProt P23977)) for the entry CN1C2CC[C@@H]1C[C@H](c1ccc(Cl)cc1)[C@@H]2C(=O)OCCc1ccc(N=[N+]=[N-])cc1
24

Find Control (Sodium-dependent dopamine transporter (Rattus norvegicus) (UniProt P23977)) for the entry CN1C2CC[C@@H]1C[C@H](c1ccc(Cl)cc1)[C@@H]2C(=O)OCCc1ccc(N=[N+]=[N-])c(I)c1
22

Find Control (Sodium-dependent dopamine transporter (Rattus norvegicus) (UniProt P23977)) for the entry CN1C2CC[C@@H]1C[C@H](c1ccc(Cl)cc1)[C@@H]2C(=O)OCCc1ccc(NC(=O)CBr)cc1
26

Find Control (Sodium-dependent dopamine transporter (Rattus norvegicus) (UniProt P23977)) for the entry CN1C2CC[C@@H]1C[C@H](OC(=O)c1ccccc1)[C@@H]2C(=O)OCCc1ccc(NC(=O)CBr)cc1
33

---

- measured-on: Sodium-dependent dopamine transporter (Rattus norvegicus) (UniProt P23977)
- test-method-notes: In vitro ability to inhibit the [3H]WIN-35428 binding to cocaine binding site on dopamine transporter in rat striatal membranes irreversibly after one wash.
- Assay type: cell membranes
- Design: concentration or dose not given beside the values
- condition-notes: Striatum; Membrane
Please respond with reported Control for every item in the list.
Provide only the numeric value, understood in %.

# get_value(readout='Control', item= CN1C2CC[C@@H]1C[C@H](c1ccc(Cl)cc1)[C@@H]2C(=O)OCCc1ccc(NC(=O)CBr)cc1 )
23

# get_value(readout='Control', item= COC(=O)[C@@H]1C2CC[C@H](C[C@@H]1c1ccc(N=[N+]=[N-])c(I)c1)N2C )
2

# get_value(readout='Control', item= CN1C2CC[C@@H]1C[C@H](OC(=O)c1ccccc1)[C@@H]2C(=O)OCCc1ccc(N=[N+]=[N-])cc1 )
30

# get_value(readout='Control', item= CN1C2CC[C@@H]1C[C@H](c1ccc(Cl)cc1)[C@@H]2C(=O)OCCc1ccc(N=C=S)cc1 )
29

---

- measured-on: Sodium-dependent dopamine transporter (Rattus norvegicus) (UniProt P23977)
- test-method-notes: In vitro ability to inhibit the [3H]WIN-35428 binding to cocaine binding site on dopamine transporter in rat striatal membranes irreversibly after one wash.
- Format: cell membranes
- Parameters: concentration or dose not given beside the values
- condition-notes: Striatum; Membrane
endpoint: Control (%)
Provide only the numeric value, understood in %.

Find Control (Sodium-dependent dopamine transporter (Rattus norvegicus) (UniProt P23977)) for the entry CN1C2CC[C@@H]1C[C@H](c1ccc(Cl)cc1)[C@@H]2C(=O)OCCc1ccc(N=[N+]=[N-])cc1
19

Find Control (Sodium-dependent dopamine transporter (Rattus norvegicus) (UniProt P23977)) for the entry CN1C2CC[C@@H]1C[C@H](OC(=O)c1ccccc1)[C@@H]2C(=O)OCCc1ccc(NC(=O)CBr)cc1
34

Find Control (Sodium-dependent dopamine transporter (Rattus norvegicus) (UniProt P23977)) for the entry CN1C2CC[C@@H]1C[C@H](c1ccc(Cl)cc1)[C@@H]2C(=O)OCCc1ccc(N=[N+]=[N-])c(I)c1
14

Find Control (Sodium-dependent dopamine transporter (Rattus norvegicus) (UniProt P23977)) for the entry COC(=O)[C@H]1[C@@H](OC(=O)c2ccccc2)C[C@@H]2CC[C@H]1N2C
85

---

Please respond with reported Control for every item in the list.
- measured-on: Sodium-dependent dopamine transporter (Rattus norvegicus) (UniProt P23977)
- test-method-notes: In vitro ability to inhibit the [3H]WIN-35428 binding to cocaine binding site on dopamine transporter in rat striatal membranes irreversibly after no wash.
- Type: cell membranes
- Parameters: concentration or dose not given beside the values
- condition-notes: Striatum; Membrane
Provide only the numeric value, understood in %.

Find Control (Sodium-dependent dopamine transporter (Rattus norvegicus) (UniProt P23977)) for the entry CN1C2CC[C@@H]1C[C@H](c1ccc(Cl)cc1)[C@@H]2C(=O)OCCc1ccc(NC(=O)CBr)cc1
14

Find Control (Sodium-dependent dopamine transporter (Rattus norvegicus) (UniProt P23977)) for the entry CN1C2CC[C@@H]1C[C@H](c1ccc(Cl)cc1)[C@@H]2C(=O)OCCc1ccc(N=[N+]=[N-])cc1
21

Find Control (Sodium-dependent dopamine transporter (Rattus norvegicus) (UniProt P23977)) for the entry CN1C2CC[C@@H]1C[C@H](c1ccc(Cl)cc1)[C@@H]2C(=O)OCCc1ccc(N=C=S)cc1
24

Find Control (Sodium-dependent dopamine transporter (Rattus norvegicus) (UniProt P23977)) for the entry CN1C2CC[C@@H]1C[C@H](OC(=O)c1ccccc1)[C@@H]2C(=O)OCCc1ccc(NC(=O)CBr)cc1
22

Find Control (Sodium-dependent dopamine transporter (Rattus norvegicus) (UniProt P23977)) for the entry CN1C2CC[C@@H]1C[C@H](c1ccc(Cl)cc1)[C@@H]2C(=O)OCCc1ccc(N=[N+]=[N-])c(I)c1
14

Find Control (Sodium-dependent dopamine transporter (Rattus norvegicus) (UniProt P23977)) for the entry COC(=O)[C@H]1[C@@H](OC(=O)c2ccccc2)C[C@@H]2CC[C@H]1N2C
43

Find Control (Sodium-dependent dopamine transporter (Rattus norvegicus) (UniProt P23977)) for the entry CN1C2CC[C@@H]1C[C@H](OC(=O)c1ccccc1)[C@@H]2C(=O)OCCc1ccc(N=[N+]=[N-])cc1
23

Find Control (Sodium-dependent dopamine transporter (Rattus norvegicus) (UniProt P23977)) for the entry COC(=O)[C@@H]1C2CC[C@H](C[C@@H]1c1ccc(N=[N+]=[N-])c(I)c1)N2C
0
